Tested on: Influenza A virus (A/WSN/1933(H1N1))
Experiment: Binding affinity to Influenza A virus A/WSN/33 (H1N1) HA1 protein assessed as decrease in protein affinity to sialic acid receptor by measuring association constant by surface plasmon resonance assay (reference value: 20810/s)
Recorded Ka by entry
measurement.name: Ka (s⁻¹)

[
  {
    "input.smiles": "CCCc1cc(O)cc(OC)c1Oc1c(Cl)c(O)c(Cl)c2c1C(=O)O[C@@H]2CC",
    "quantitative.readout": 3560
  },
  {
    "input.smiles": "CCCc1c(Cl)c(O)cc(OC)c1Oc1c(Cl)c(O)c(Cl)c2c1C(=O)O[C@@H]2CC",
    "quantitative.readout": 3420
  },
  {
    "input.smiles": "COc1cc(/C=C/C(=O)CC(=O)/C=C/c2ccc(O)c(OC)c2)ccc1O",
    "quantitative.readout": 2660
  },
  {
    "input.smiles": "CCOC(=O)c1c(CSc2ccccc2)n(C)c2cc(Br)c(O)c(CN(C)C)c12",
    "quantitative.readout": 11800
  }
]
